- System: KRAS patient-derived spheroids with HUVEC/MSC, viability
- TEST PROTOCOL: Anticancer human tumor 519858-162-T-J1-PDC patient-derived colon adenocarcinoma cell line growth inhibition [KRAS2]; active means viability on the fitted dose curve at most 10% of control; inactive means the rest
- EXPERIMENTAL CONTEXT: second compound 3.16 µM; first compound 0.0316 µM
I would appreciate it if you answered using one of these outcomes: active, inactive

Prompt: So what was the verdict on Cn1nccc1Nc1nccc(-c2cc3c(s2)C(C)(C)N(CCN2CCOCC2)C3=O)n1 + CNCc1ccccc1-c1csc(C(C)Nc2nc(C)nc3cc(OC)c(OC)cc23)c1 in this test?
Completion: inactive

Prompt: What did the test return for CC(C)NCC(C(=O)N1CCN(c2ncnc3c2C(C)CC3O)CC1)c1ccc(Cl)cc1 (stereo not given) + CNCc1ccccc1-c1csc(C(C)Nc2nc(C)nc3cc(OC)c(OC)cc23)c1 ?
Completion: inactive

Prompt: Record request — test call for COC(=O)c1ccc2c(C(=Nc3ccc(N(C)C(=O)CN4CCN(C)CC4)cc3)c3ccccc3)c(O)[nH]c2c1 + CC1OCC2(CCN(c3cnc(Sc4ccnc(N)c4Cl)c(N)n3)CC2)C1N
Completion: inactive

Prompt: Returns: the outcome recorded for CC(=O)OC12COC1CC(O)C1(C)C(=O)C(O)C3=C(C)C(OC(=O)C(O)C(NC(=O)OC(C)(C)C)c4ccccc4)CC(O)(C(OC(=O)c4ccccc4)C21)C3(C)C (stereo not given) + C=CC(=O)N1CCN(c2nc(=O)n(-c3c(C)ccnc3C(C)C)c3nc(-c4c(O)cccc4F)c(F)cc23)C(C)C1 in this assay.
Completion: inactive

Prompt: Identify the outcome logged in this assay for the molecule shown: CC(=O)Nc1cccc(-n2c(=O)n(C3CC3)c(=O)c3c(Nc4ccc(I)cc4F)n(C)c(=O)c(C)c32)c1 + CNCc1ccccc1-c1csc(C(C)Nc2nc(C)nc3cc(OC)c(OC)cc23)c1
Completion: active

Prompt: What classification did CC1(C)CCC(CN2CCN(c3ccc(C(=O)NS(=O)(=O)c4ccc(NCC5CCOCC5)c([N+](=O)[O-])c4)c(Oc4cnc5[nH]ccc5c4)c3)CC2)=C(c2ccc(Cl)cc2)C1 + CNCc1ccccc1-c1csc(C(C)Nc2nc(C)nc3cc(OC)c(OC)cc23)c1 end up with in this test?
Completion: inactive

Prompt: Per the records of this test, what outcome belongs to CC1OCC2(CCN(c3cnc(Sc4ccnc(N)c4Cl)c(N)n3)CC2)C1N (stereo not given) + C=CC(=O)N1CCN(c2nc(=O)n(-c3c(C)ccnc3C(C)C)c3nc(-c4c(O)cccc4F)c(F)cc23)C(C)C1 ?
Completion: inactive

Prompt: Assay result, entry O=C(c1cc(Cc2n[nH]c(=O)c3ccccc23)ccc1F)N1CCN(C(=O)C2CC2)CC1 + C=CC(=O)N1CCN(c2nc(OCC3CCCN3C)nc3c2CCN(c2cccc4cccc(C)c24)C3)CC1CC#N — outcome?
Completion: inactive

Prompt: Call for entry Cn1ncnc1[C@H]1c2n[nH]c(=O)c3cc(F)cc(c23)N[C@@H]1c1ccc(F)cc1 + C=CC(=O)N1CCN(c2nc(OCC3CCCN3C)nc3c2CCN(c2cccc4cccc(C)c24)C3)CC1CC#N :
Completion: inactive

Prompt: # outcome recorded in this test, key = CC(=O)OC12COC1CC(O)C1(C)C(=O)C(O)C3=C(C)C(OC(=O)C(O)C(NC(=O)OC(C)(C)C)c4ccccc4)CC(O)(C(OC(=O)c4ccccc4)C21)C3(C)C (stereo not given) + CC1OCC2(CCN(c3cnc(Sc4ccnc(N)c4Cl)c(N)n3)CC2)C1N
Completion: inactive

---

- Tested on: KRAS patient-derived spheroids with HUVEC/MSC, viability
- TEST PROTOCOL: Anticancer human tumor 519858-162-T-J1-PDC cell line growth inhibition [KRAS2];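 further: compound exposure lasted seven days before readout; 100% = DMSO vehicle control viability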
- EXPERIMENTAL CONTEXT: second compound 0.316 µM; first compound 0.316 µM; active compounds read low
READOUT: viability, T/C (%)
Give the value in % but do not write % after it.

Prompt: viability, T/C lookup needed for COC(=O)c1ccc2c(C(=Nc3ccc(N(C)C(=O)CN4CCN(C)CC4)cc3)c3ccccc3)c(O)[nH]c2c1 + COc1cc2nc(C)nc(NC(C)c3cc(N)cc(C(F)(F)F)c3)c2cc1OC1CCOC1 , thanks.
Completion: 92

Prompt: What viability, T/C value was documented for this compound, O=C(c1cc(Cc2n[nH]c(=O)c3ccccc23)ccc1F)N1CCN(C(=O)C2CC2)CC1 + CC1OCC2(CCN(c3cnc(Sc4ccnc(N)c4Cl)c(N)n3)CC2)C1N ?
Completion: 67.7

Prompt: // viability, T/C lookup, key: COc1cc(Nc2ncc3c(n2)-c2ccc(Cl)cc2C(c2c(F)cccc2OC)=NC3)ccc1C(=O)O + C=CC(=O)N1CCN(c2nc(OCC3CCCN3C)nc3c2CCN(c2cccc4cccc(C)c24)C3)CC1CC#N
Completion: 63.2

Prompt: Dear colleague, I am looking for the recorded viability, T/C of the following compound: CC1(C)CCC(CN2CCN(c3ccc(C(=O)NS(=O)(=O)c4ccc(NCC5CCOCC5)c([N+](=O)[O-])c4)c(Oc4cnc5[nH]ccc5c4)c3)CC2)=C(c2ccc(Cl)cc2)C1 + CC1OCC2(CCN(c3cnc(Sc4ccnc(N)c4Cl)c(N)n3)CC2)C1N
Completion: 89.1

Prompt: I am curious: what viability, T/C value has been reported for COc1cc(Nc2ncc3c(n2)-c2ccc(Cl)cc2C(c2c(F)cccc2OC)=NC3)ccc1C(=O)O + CC1OCC2(CCN(c3cnc(Sc4ccnc(N)c4Cl)c(N)n3)CC2)C1N ?
Completion: 88.1

---

- System: KRAS patient-derived spheroids with HUVEC/MSC, viability
- TEST PROTOCOL: Anticancer human tumor 519858-162-T-J1-PDC cell line growth inhibition [KRAS2];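 further: compound exposure lasted seven days before readout; 100% = DMSO vehicle control viability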
- EXPERIMENTAL CONTEXT: second compound 10 µM; first compound 0.01 µM; active compounds read low
- From the text: Multicellular complex tumor spheroid response to RAS pathway inhibitors in combination with a targeted agents in patient-derived cell lines with oncogenic KRAS variants from multiple cancer types A high-throughput screen of multi-cell type tumor spheroids was designed to identify active combinations of targeted small molecules and KRAS pathway inhibitors. […] Compounds. […] If the clinical Cmax for an agent had not been determined, the highest concentration tested was 10 microM. […]
Parameter class (string): assigned from measured viability, T/C. Ranges: low (below 30%), intermediate (30% to below 70%), high (70% or more)

Prompt: Which class is correct for the following molecule? CC(=O)OC12COC1CC(O)C1(C)C(=O)C(O)C3=C(C)C(OC(=O)C(O)C(NC(=O)OC(C)(C)C)c4ccccc4)CC(O)(C(OC(=O)c4ccccc4)C21)C3(C)C (stereo unspecified) + CC1OCC2(CCN(c3cnc(Sc4ccnc(N)c4Cl)c(N)n3)CC2)C1N
Completion: high

Prompt: Form field 'band' for CC1COCCN1c1cc(-c2ccnn2C)c2ccnc(-c3ccn[nH]3)c2n1 (stereo unspecified) + CNCc1ccccc1-c1csc(C(C)Nc2nc(C)nc3cc(OC)c(OC)cc23)c1
Completion: low

Prompt: Given CC(C)n1nc(-c2ccc3oc(N)nc3c2)c2c(N)ncnc21 + COc1cc2nc(C)nc(NC(C)c3cc(N)cc(C(F)(F)F)c3)c2cc1OC1CCOC1 , name the class its viability, T/C places it in.
Completion: intermediate

Prompt: Sort into band: CC1COCCN1c1cc(-c2ccnn2C)c2ccnc(-c3ccn[nH]3)c2n1 (stereo unspecified) + CC1OCC2(CCN(c3cnc(Sc4ccnc(N)c4Cl)c(N)n3)CC2)C1N
Completion: high

Prompt: // return the class label for Cn1ncnc1[C@H]1c2n[nH]c(=O)c3cc(F)cc(c23)N[C@@H]1c1ccc(F)cc1 + CNCc1ccccc1-c1csc(C(C)Nc2nc(C)nc3cc(OC)c(OC)cc23)c1
Completion: low

Prompt: Classify this molecule: Cn1ncnc1[C@H]1c2n[nH]c(=O)c3cc(F)cc(c23)N[C@@H]1c1ccc(F)cc1 + CC1OCC2(CCN(c3cnc(Sc4ccnc(N)c4Cl)c(N)n3)CC2)C1N
Completion: intermediate

Prompt: Class label required: CC(=O)OC12COC1CC(O)C1(C)C(=O)C(O)C3=C(C)C(OC(=O)C(O)C(NC(=O)OC(C)(C)C)c4ccccc4)CC(O)(C(OC(=O)c4ccccc4)C21)C3(C)C (stereo unspecified) + COc1cc2nc(C)nc(NC(C)c3cc(N)cc(C(F)(F)F)c3)c2cc1OC1CCOC1
Completion: high

Prompt: Sort CC(=O)Nc1cccc(-n2c(=O)n(C3CC3)c(=O)c3c(Nc4ccc(I)cc4F)n(C)c(=O)c(C)c32)c1 + C=CC(=O)N1CCN(c2nc(=O)n(-c3c(C)ccnc3C(C)C)c3nc(-c4c(O)cccc4F)c(F)cc23)C(C)C1 into one of the categories.
Completion: intermediate

Prompt: Would you mind sorting CC1COCCN1c1cc(-c2ccnn2C)c2ccnc(-c3ccn[nH]3)c2n1 (stereo unspecified) + COc1cc2nc(C)nc(NC(C)c3cc(N)cc(C(F)(F)F)c3)c2cc1OC1CCOC1 into the appropriate category?
Completion: high

Prompt: Kindly identify the class of CCN1CCN(Cc2ccc(Nc3ncc(F)c(-c4cc(F)c5nc(C)n(C(C)C)c5c4)n3)nc2)CC1 + CNCc1ccccc1-c1csc(C(C)Nc2nc(C)nc3cc(OC)c(OC)cc23)c1 .
Completion: low

Prompt: Please let me know in which category the item Cn1ncnc1[C@H]1c2n[nH]c(=O)c3cc(F)cc(c23)N[C@@H]1c1ccc(F)cc1 + COc1cc2nc(C)nc(NC(C)c3cc(N)cc(C(F)(F)F)c3)c2cc1OC1CCOC1 belongs.
Completion: intermediate
